experiment: CEETOX_H295R_TESTO: CeeTox H295R High-throughput Steroidogenesis Assay for Testosterone (TESTO) (AID 2283457); conditions: actives raise or lower the signal;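 as to AC50: cells exposed to chemicals for 48 h before medium collection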
Activity calls are given as the source filed them. The calls were made as follows: active = hit-call score of the fitted dose curve at least 0.9, where 1 is the maximum; inactive = score below 0.9.
assay-endpoint: AC50

Oc1ccc2ccccc2c1; 82.4 µM (active)
CCCCCCCCN(C)CCCCCCCC; inactive
Cc1c2ccccc2c(C)c2c1ccc1ccccc12; inactive
NC(=O)c1nc(-c2cccc(-c3cc(F)ccc3OCC(F)(F)C(F)(F)F)c2)n[nH]1; inactive

---

Read-out: Monokine induced gamma interferon (MIG), CXCL9 (gene 4283)
Test: BSK_BE3C_MIG: BioMAP Diversity Plus: BE3C Assay for Monokine induced gamma interferon (MIG) Biomarker Activity (AID 2283035)
Settings: primary human bronchial epithelial cells; actives raise or lower the signal
Description: BSK_BE3C is a cell-based, multiplexed-readout assay that uses bronchial epithelial cell, a human lung primary cell, with measurements taken at 24 hours after chemical dosing in a 96-well plate.BSK_BE3C_MIG is an assay component measured in the BSK_BE3C assay. It measures MIG antibody related to regulation of gene expression using ELISA technology.Data from the assay component BSK_BE3C_MIG was analyzed into 1 assay endpoint. […]
Activity calls are given as the source filed them. Rule for the calls: active = hit-call score of the fitted dose curve at least 0.9, where 1 is the maximum; inactive = score below 0.9.
Answer with one of the outcomes given here: Y (active), N (inactive)

// known answers, use as guide
O=C1CCC(C2CCCCC2)CC1; N
C[C@]12CC[C@@H]3c4ccc(O)cc4CC[C@H]3[C@@H]1CC[C@H]2O; N
COCC(C)OCC(C)OCC(C)O (configuration not stated); N
c1ccc2ccccc2c1; N
O=c1ccc2ccccc2o1; N
CC(C)(C)c1csc(-c2cc3cc(OCc4ccccc4CC(=O)O)ccc3o2)n1; Y
CCCCOC(=O)c1ccc(O)cc1; N
CCN(Cc1cccnc1)C(=O)c1cccc(Cl)c1[C@]1(C)C(=O)N(Cc2ccc(OC)cc2OC)c2ccc(Cl)cc21; N
CC(O)CC(C)(C)O (configuration not stated); N
NCc1cccc(C2CCN(C(=O)c3ccc(C#Cc4ccccc4F)o3)CC2)c1; Y

[Q] Check the results log: what was the call for `O=C(O)c1ccccc1C(=O)OCc1ccccc1` ?
[A] N

[Q] Next record, please: `Cc1ccc2oc(CN(Cc3ccccc3)C(=O)Nc3c(F)cc(F)cc3F)c(-c3ccc(Cl)cc3)c2c1`
[A] N
